Tested on: SR leukemia
ASSAY_NAME: NCI tumour cell line growth inhibition, 48 h
PARAMETER_MEASURED: TGI

Reported TGI for "COC(=O)[C@H](C)N(C)C(=O)[C@H](C)N1[C@@H](c2ccccc2)COC1(C)C" : what is it? > 100 µM

Next compound up: "Cn1c(=O)[nH]c2c(c1=O)C(=O)CN2" > 100 µM

Next compound up: "CN(C)C/C=C/C(=O)Nc1cc2c(Nc3cccc(Cl)c3F)ncnc2cc1OCCOC(F)F" 5.22 µM

Next compound up: "COc1cc(-c2ccccc2)cn2c1nc1ccccc12" 99.6 µM

Next compound up: "FC(F)(F)c1nc(Br)[nH]c1C(F)(F)F" > 100 µM

Next compound up: CN1CCN(Cc2ccccc2)CC1CC#N (centres undefined) > 100 µM

Next compound up: CC(C)CC1NC(=O)CCC(NC(=O)C(Cc2ccc(O)cc2)NC(=O)OCc2ccccc2)C(=O)NC(Cc2ccccc2)C(=O)NC(Cc2ccccc2)NC1=O (centres undefined) > 100 µM

Next compound up: CC(=O)OCC1=CC2CCC3C(C)(CCC[C@]3(C)COC(C)=O)C23CC[C@H]1C3 (some centres undefined) 76.5 µM

Next compound up: "Cc1cnc2[nH]c(-c3ccc(Cl)cc3)cc(=O)c2c1" > 100 µM

Data credit: PubChem BioAssay (NCI)
